Protocol Text: activity coefficient (dimensionless); of the first substance listed, at infinite dilution; xn = mol fraction of the nth substance listed
Test Conditions: 348.15 K; 100 kPa; Liquid; Chromatography; x1 = 0
# note: exactly 20 is not below, so it is 0.0; use 1.0 for activity coefficient strictly under it

INSERT INTO measurements (compound, label_class) VALUES
  ('CCCCCCCC [octane] + CC(O)C(=O)[O-].CC[N+]1(C)CCCC1', 0.0);

Incoming: Regarding Cc1cccc(C)c1 [1,3-dimethylbenzene] + CC(O)C(=O)[O-].CC[N+]1(C)CCCC1 , kindly confirm whether its activity coefficient is beneath 20.
Outgoing: 1.0

Incoming: Below 20 on activity coefficient? Entry CCC(C)CC [3-methylpentane] + CC(O)C(=O)[O-].CC[N+]1(C)CCCC1
Outgoing: 0.0

Incoming: Below 20 on activity coefficient? Entry COC(C)(C)C [2-methoxy-2-methylpropane] + CC(O)C(=O)[O-].CC[N+]1(C)CCCC1
Outgoing: 1.0

Incoming: Could you please tell me whether activity coefficient recorded for c1ccncc1 [pyridine] + CC(O)C(=O)[O-].CC[N+]1(C)CCCC1 is less than 20?
Outgoing: 1.0

Recorded values, source the NIST ThermoML archive (doi:10.1016/j.jct.2015.05.014).
